Reported cell viability by item:
system: MOLM-13; experiment: cell viability (% survival relative to DMSO control, bortezomib = 0%); higher = less cytotoxic; conditions: 1 nM; 72 h
Record the value in %, omitting the unit from your answer.

Completed entries (count: 4):
COMPOUND: COc1cc(/C=C/C(=O)N2CCC=CC2=O)cc(OC)c1OC
cell viability, %: 98.6

COMPOUND: CC(C)(C#N)c1cc(Cn2cncn2)cc(C(C)(C)C#N)c1
cell viability, %: 97.4

COMPOUND: O=C(O)c1cc(N=Nc2ccc(S(=O)(=O)Nc3ccccn3)cc2)ccc1O
cell viability, %: 105

COMPOUND: CCCCN1C[C@H](O)[C@@H](O)[C@H](O)[C@H]1CO
cell viability, %: 90

Prompt line: Quick check: cell viability of N#Cc1ccnc(N2C(=O)CC[C@H]2C(=O)N(c2cncc(F)c2)C(C(=O)NC2CC(F)(F)C2)c2ccccc2Cl)c1 (stereo not given in full) ?
Response line: 111
